# experimental.target: human GPR119 (Homo sapiens, UniProt Q8TDV5)
# Construct: expressed in transfected cells; host or cells: HEK 293s
# Sequence (Q8TDV5 whole entry): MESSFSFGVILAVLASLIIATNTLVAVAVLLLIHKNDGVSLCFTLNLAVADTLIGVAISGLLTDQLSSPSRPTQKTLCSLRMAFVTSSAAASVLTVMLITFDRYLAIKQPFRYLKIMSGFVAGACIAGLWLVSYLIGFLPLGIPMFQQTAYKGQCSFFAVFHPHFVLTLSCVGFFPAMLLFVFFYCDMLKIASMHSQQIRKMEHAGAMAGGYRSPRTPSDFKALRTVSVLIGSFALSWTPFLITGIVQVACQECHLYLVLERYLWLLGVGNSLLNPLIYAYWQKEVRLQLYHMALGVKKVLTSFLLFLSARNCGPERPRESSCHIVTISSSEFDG
# assay.overview: Cyclic AMP (HTRF cAMP) assay for human GPR119, Method A
# Format: cell-based
# condition.description: HEK293S, 0.75 h; Method A; HEK 293s cells over-expressing human GPR119; percent effect at top concentration 30 μM relative to maximum (50 μM Oleoylethanolamide) and minimum (1% DMSO) controls
observable: activation at 30 µM (%)

structure.smiles | unit | activation at 30 µM
CN1CCC(CNC(=O)c2ccc(COc3cnc(N4CCN(C(=O)OC(C)(C)C)CC4)nc3)cc2)CC1 | % | 20
C[C@@H]1CN(C(=O)OC2CCOCC2)CCN1c1ncc(OCc2ccncc2C#N)cn1 | % | 102
CNC(=O)c1ccc(COc2cnc(N3CCN(C(=O)OC(C)(C)C)CC3)nc2)cc1 | % | 142
CC(C)(C)OC(=O)N1CCN(c2ncc(OCc3ccc(C(=O)NCCO)cc3)cn2)CC1 | % | 61
CC(C)c1nc(N2CCN(c3ncc(OCc4ccc(S(C)(=O)=O)cc4)cn3)CC2)no1 | % | 48

(I) CC(C)(C)OC(=O)N1CCN(c2ncc(OCc3ccc(S(=O)(=O)CCN4CCOCC4)cc3)cn2)CC1
(II) C[C@@H]1CN(C(=O)OC(C)(C)C)CCN1c1ncc(OCc2ccc(S(C)(=O)=O)cc2)cn1
(III) C[C@@H]1CN(C(=O)OC(C)(C)C)CCN1c1ncc(OCc2ccc(C(=O)N(C)CCO)cc2)cn1
Exercise: Please list these compounds in decreasing order of activation at 30 µM. Thanks in advance for listing the labels in the requested order.
Key: II, III, I
